Numbers sourced from ChEMBL document CHEMBL1134882.

System: Burkholderia cepacia
assayName: Kinetic resolution by Lipase PS from Pseudomonas cepacia, catalyzed acylation by using Phenyl acetate
readoutType: TIME (h)

smilesEntry: CN(C)C(=O)C[C@H](CO)COCc1ccccc1
observed: 2

smilesEntry: O=C(C[C@@H](CO)COCc1ccccc1)NCc1ccccc1
observed: 10

smilesEntry: CCNC(=O)C[C@@H](CO)COCc1ccccc1
observed: 1

smilesEntry: CNC(=O)C[C@@H](CO)COCc1ccccc1
observed: 12
